Target: Fyn (UniProt P06241)
Sequence (P06241 whole entry, looked up): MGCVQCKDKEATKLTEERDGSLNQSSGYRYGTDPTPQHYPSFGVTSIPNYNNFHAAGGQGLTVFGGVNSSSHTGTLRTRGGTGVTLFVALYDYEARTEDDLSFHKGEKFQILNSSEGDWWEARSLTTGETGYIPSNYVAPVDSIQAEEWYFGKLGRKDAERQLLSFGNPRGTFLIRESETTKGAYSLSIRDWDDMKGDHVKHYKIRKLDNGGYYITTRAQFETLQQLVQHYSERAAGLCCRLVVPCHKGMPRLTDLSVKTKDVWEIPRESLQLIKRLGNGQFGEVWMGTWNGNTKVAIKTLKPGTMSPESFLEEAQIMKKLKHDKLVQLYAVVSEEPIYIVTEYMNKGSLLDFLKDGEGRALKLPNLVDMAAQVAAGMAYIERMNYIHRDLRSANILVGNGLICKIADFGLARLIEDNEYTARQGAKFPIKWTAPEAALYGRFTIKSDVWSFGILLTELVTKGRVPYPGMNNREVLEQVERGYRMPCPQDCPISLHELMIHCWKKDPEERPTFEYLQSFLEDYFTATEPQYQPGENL
Assay: phosphorylation enrichment, bacterial display (enrichment ratio); higher = better substrate or ligand; peptides without Tyr show the background;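 also: 11-residue human phosphosite peptides and single-mutation variants displayed on the E. coli surface, counted by deep sequencing, each peptide's frequency after selection divided by its frequency in the unselected input library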;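 also: frequency after pTyr selection over input frequency; kinase dosed for 20-30% of maximal phosphorylation in three min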
Classification scheme (phosphorylation enrichment): b0 (below 0.5), b1 (0.5 to below 0.6), b2 (0.6 or more)

residue_sequence="VHSGTYQVMVR [MYBPC3_Y1043_T1046M]" answer_label=b1
residue_sequence="IKSSIYDNRNE [ARAP2_Y380_K384N]" answer_label=b0
residue_sequence="ASTDFNKRGDF [PDHA1_Y243_Y243N_YF]" answer_label=b0
residue_sequence="SLAARYFNWVC [FLT4_Y1230_S1235C_YF]" answer_label=b0
residue_sequence="VRFMADTDETF [F8_Y450_Y450D]" answer_label=b1
residue_sequence="AKKKMYSCKTK [AGXT_Y231_R233C]" answer_label=b0
residue_sequence="STLEVYSCHPP [IL21R_Y317]" answer_label=b2
residue_sequence="DSASAYADEVK [ETNPPL_Y189]" answer_label=b1
residue_sequence="MEVEQYIFVKC [CYBB_Y324_G322E]" answer_label=b1
residue_sequence="FGGLRYGFGVL [KRTAP20-2_Y13_YF]" answer_label=b0
residue_sequence="SDTGQYQCLVF [AXL_Y115]" answer_label=b2
residue_sequence="WKEIEYEVVRD [CPS1_Y634]" answer_label=b1
residue_sequence="VNNLVYENING [FRS2_Y306_K303N]" answer_label=b2
residue_sequence="PSELFYSKISP [SMG1_Y2254_G2258S_YF]" answer_label=b2
residue_sequence="HSFQCYGRNEA [ENTPD3_Y262]" answer_label=b2
residue_sequence="QKMFDYLKEKK [RYR2_Y3780_L3778F]" answer_label=b0
residue_sequence="VITDYYVDMKF [MPP4_Y567]" answer_label=b2
residue_sequence="EFLRNYFTDKA [DSG2_Y775]" answer_label=b0
residue_sequence="SRGLAYPARPA [LEMD2_Y122]" answer_label=b0
residue_sequence="KLQKFYRKNPD [EHHADH_Y683_Q685K_YF]" answer_label=b0
residue_sequence="EGNERYEGFCV [GRIA3_Y451_YF]" answer_label=b1
residue_sequence="EAEPYYCSLRD [NPHS1_Y1139_R1140C]" answer_label=b2
residue_sequence="FLAVGYHKLHI [IDS_Y225_P228L]" answer_label=b2
residue_sequence="EQKKFYNATKK [SCN5A_Y1495_M1498T_YF]" answer_label=b0
residue_sequence="QNKEDYAGLKE [GSTO1_Y139]" answer_label=b2
residue_sequence="YSTPPYLLEAA [BRIP1_Y921_S919P]" answer_label=b2
residue_sequence="IKKLIYVFLVI [JAGN1_Y42_H44Y_YF]" answer_label=b0
residue_sequence="PPVVNYEQDAR [FER_Y402_E404Q]" answer_label=b2
residue_sequence="EPYEVYRIVPE [IRF8_Y110_K108E]" answer_label=b2
residue_sequence="SLNEEYAKNKT [MSH2_Y563_T564A]" answer_label=b0
residue_sequence="RASGIYFVPKG [APBB1IP_Y340_YF]" answer_label=b2
residue_sequence="DYLEKYYKFGS [NNMT_Y24]" answer_label=b0
residue_sequence="QISRDYGVLLE [PRDX3_Y172]" answer_label=b2
residue_sequence="TNQVIYLNPPI [DYNC1H1_Y970]" answer_label=b2
residue_sequence="QLYGAYLRIHA [BSCL2_Y213]" answer_label=b2
residue_sequence="SVVVPYAPPEV [TP53_Y220_E221A]" answer_label=b0
